Hey, just so you know, these numbers are from patent US20070117743A1.

- Tested on: LNCaP
- ASSAY_NAME: SRB colorimetric assay of cell growth and viability, LNCaP
- Format: cell-based, human
- MEASUREMENT_CONTEXT: 48 hours exposure, SRB; read-out: LC50 LN-caP
- Protocol: The finality of this assay is to interrupt the growth of a “in vitro” tumor cell culture by means a continued exhibition of the cells to the sample to be testing. […] Cells are seeded in 96 well microtiter plates, at 5×10^3 cells per well in aliquots of 195 μL medium, and they are allowed to attach to the plate surface by growing in drug free medium for 18 hours. […] Optical densities are read on a automated spectrophotometric plate reader at a single wavelength of 490 nm. […]
Where a SMILES comes first, the peptide text is derived from it. Bridges are numbered along the chain shown (N, C = ends). [ ]: non-standard residue; d: D form. The star is where a group is joined. d(aIle) = CC[C@H](C)[C@@H](N)C(=O)O; d(aThr) = C[C@@H](O)[C@@H](N)C(=O)O; Hexanoyl(5-Me) = CC(C)CCCC(=O)*; Orn = NCCC[C@H](N)C(=O)O; Dhb = C/C=C(\N)C(=O)O; Aib = CC(C)(N)C(=O)O

{"COMPOUND": "C/C=C1\\NC(=O)[C@H](Cc2c[nH]c3ccccc23)NC(=O)[C@@H](C(C)C)NC(=O)[C@@H]([C@@H](C)CC)NC(=O)[C@H](NC(=O)[C@H](NC(=O)[C@H](CCCN)NC(=O)[C@H]2CCCN2C(=O)[C@H](NC(=O)[C@@H](NC(=O)[C@@H](NC(=O)[C@H](NC(=O)CCCC(C)C)C(C)C)[C@@H](C)O)C(C)C)C(C)C)[C@@H](C)CC)[C@@H](C)OC(=O)[C@H](C(C)C)NC1=O [Compound 68, [Trp^3]-KF] ({Hexanoyl(5-Me)}-[dV]TV[dV][dP][Orn][d(aIle)][d(aThr)][d(aIle)][dV]W[Dhb]V; ester 8-C)", "MEASUREMENT_UNIT": "µM", "QUALIFIER_SYMBOL": "=", "CC50": 5.29}
{"COMPOUND": "C/C=C1\\NC(=O)[C@@H](Cc2ccccc2)NC(=O)[C@H](C(C)C)NC(=O)[C@H]([C@H](C)CC)NC(=O)[C@@H](NC(=O)[C@@H](NC(=O)[C@@H](CCCN)NC(=O)[C@@H]2CCCN2C(=O)[C@@H](NC(=O)[C@H](NC(=O)[C@H](NC(=O)[C@@H](NC(=O)CCCC(C)C)C(C)C)[C@H](C)O)C(C)C)C(C)C)[C@H](C)CC)[C@H](C)OC(=O)[C@@H](C(C)C)NC1=O [Compound 69]", "MEASUREMENT_UNIT": "µM", "QUALIFIER_SYMBOL": "≥", "CC50": 6.77}
{"COMPOUND": "C/C=C1\\NC(=O)[C@H](Cc2ccc([N+](=O)[O-])cc2)NC(=O)[C@@H](C(C)C)NC(=O)[C@@H]([C@@H](C)CC)NC(=O)[C@H](NC(=O)[C@H](NC(=O)[C@H](CCCN)NC(=O)[C@H]2CCCN2C(=O)[C@H](NC(=O)[C@@H](NC(=O)[C@@H](NC(=O)[C@H](NC(=O)CC[C@@H](C)CC)C(C)C)[C@@H](C)O)C(C)C)C(C)C)[C@@H](C)CC)[C@@H](C)OC(=O)[C@H](C(C)C)NC1=O [Compound 73, [Phe(4-NO2)^3, (4S)-MeHex^14]-KF]", "MEASUREMENT_UNIT": "µM", "QUALIFIER_SYMBOL": "=", "CC50": 2.32}
{"COMPOUND": "C/C=C1\\NC(=O)[C@H](Cc2ccc(F)cc2)NC(=O)[C@@H](C(C)C)NC(=O)[C@@H]([C@@H](C)CC)NC(=O)[C@H](NC(=O)[C@H](NC(=O)[C@H](CCCN)NC(=O)[C@H]2CCCN2C(=O)[C@H](NC(=O)[C@@H](NC(=O)[C@@H](NC(=O)[C@H](NC(=O)CC[C@@H](C)CC)C(C)C)[C@@H](C)O)C(C)C)C(C)C)[C@@H](C)CC)[C@@H](C)OC(=O)[C@H](C(C)C)NC1=O [Compound 74, [Phe(4-F)^3, (4S)-MeHex^14]-KF]", "MEASUREMENT_UNIT": "µM", "QUALIFIER_SYMBOL": "=", "CC50": 2.59}
{"COMPOUND": "CC[C@H](C)[C@@H](NC(=O)[C@H](CCCN)NC(=O)[C@H]1CCCN1C(=O)[C@H](NC(=O)[C@@H](NC(=O)[C@@H](NC(=O)[C@H](NC(=O)CCCC(C)C)C(C)C)[C@@H](C)O)C(C)C)C(C)C)C(=O)N[C@H]1C(=O)N[C@H]([C@@H](C)CC)C(=O)N[C@H](C(C)C)C(=O)N[C@@H](Cc2ccccc2)C(=O)NC(C)(C)C(=O)N[C@@H](C(C)C)C(=O)O[C@@H]1C [Compound 66, [Aib^2]-KF] ({Hexanoyl(5-Me)}-[dV]TV[dV][dP][Orn][d(aIle)][d(aThr)][d(aIle)][dV]F[Aib]V; ester 8-C)", "MEASUREMENT_UNIT": "µM", "QUALIFIER_SYMBOL": "≥", "CC50": 6.76}
